Test system: Pneumocystis carinii
Assay: Activity against Pneumocystis carinii (method of Pesanti)
Format: cell-based
Settings: read-out: I50
pIC50: −log10 of the molar value.
Listed here: items and their measured pIC50.

{"MOLECULE": "Nc1ncnc2c1nnn2[C@@H]1CC[C@@H](O)[C@H]1O (relative stereo)", "pIC50": "> 4.70"}

// switching to the query molecule
Name the recorded pIC50 of the molecule listed here: Nc1ncnc2c1ncn2[C@H]1CC[C@@H](O)[C@H]1O (relative stereo) > 4.70
